# target.system: FUBP1 KH3 (UniProt Q96AE4 275-339)
# Sequence (Q96AE4 275-339): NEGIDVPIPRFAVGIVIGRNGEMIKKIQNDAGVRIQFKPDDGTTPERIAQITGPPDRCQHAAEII
# test.details: ITC; 50 mM NaCl; ITC: 25 mM HEPES pH 7.5, 50 mM NaCl (150 mM for tandem and KH1-4), 0.5 mM TCEP, 20 C; native PAGE: 200 uM protein, 5x ssDNA, 25 mM HEPES pH 7.5, 50 mM NaCl, 0.5 mM TCEP, 4 C, 0.5x TBE (KH4 0.5x TAE)
# condition.set: protein: recombinant; tags: His6 removed by TEV
reported.property: Kd (µM)
Numbers only, in µM.

Please fill in: Kd reported for TTGTGTTA (ssDNA) [FUSE fragment 8, 8-mer (ITC)] = 17

Where do these numbers come from? They come from paper PMC7417555.
